- Tested on: ATP;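 also: ATP exposure 15 min at 22 °C before imaging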
- protocol_notes: switch fluorescence ratio, 500 uM ATP over buffer (Cy3 cluster intensity, sum of 5 cycles each) (fold (ratio)); higher = stronger signal-on switching upon ATP binding; sequences stand for … in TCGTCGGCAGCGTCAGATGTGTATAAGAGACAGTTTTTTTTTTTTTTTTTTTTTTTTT…TC
- particulars: aptamer strand: ATP DNA aptamer (quencher-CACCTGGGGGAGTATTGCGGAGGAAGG + anchor), 100 nM annealed; ATP concentration: 500 uM
quantity_measured: switch fluorescence ratio
Give only the figure.

Worked examples, 5 sequences total:
1. TTTGGGAAGG: 0.985
2. TCGGGGGTG: 1.01
3. ATGATTAACT: 0.986
4. GAAATCGCCA: 1.02
5. GGTGCAGCTG: 0.981

Ask | # lookup: switch fluorescence ratio of TATATATAGA
Reply | 1

Ask | # lookup: switch fluorescence ratio of TATAAAAGAC
Reply | 1.02

Ask | # lookup: switch fluorescence ratio of GTGTGGGGGC
Reply | 1.01

Ask | # lookup: switch fluorescence ratio of GACGGGGCGG
Reply | 0.994

---

- Tested on: ATP;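 also: ATP exposure 15 min at 22 °C before imaging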
- protocol_notes: switch fluorescence ratio, 500 uM ATP over buffer (Cy3 cluster intensity, sum of 5 cycles each) (fold (ratio)); higher = stronger signal-on switching upon ATP binding; sequences stand for … in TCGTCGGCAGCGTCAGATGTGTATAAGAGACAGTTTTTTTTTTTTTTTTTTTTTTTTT…TC
- particulars: aptamer strand: ATP DNA aptamer (quencher-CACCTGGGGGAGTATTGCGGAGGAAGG + anchor), 100 nM annealed; ATP concentration: 500 uM
quantity_measured: switch fluorescence ratio
Give only the figure.

Worked examples, 3 sequences total:
1) CTTTGGTGTT: 1.01
2) TATTCGAGGC: 1.06
3) CCGAAGGACT: 1.02

Ask | Write down the reported switch fluorescence ratio of CCTCATGCCA , test system: ATP.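 Also: ATP exposure 15 min at 22 °C before imaging.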
Reply | 2.3

Ask | Write down the reported switch fluorescence ratio of GTTGGGGTGT , test system: ATP.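 Also: ATP exposure 15 min at 22 °C before imaging.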
Reply | 1.01

Ask | Write down the reported switch fluorescence ratio of TTTTATAAAT , test system: ATP.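 Also: ATP exposure 15 min at 22 °C before imaging.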
Reply | 1.02

Ask | Write down the reported switch fluorescence ratio of TCGTTTAATT , test system: ATP.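 Also: ATP exposure 15 min at 22 °C before imaging.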
Reply | 0.994

Ask | Write down the reported switch fluorescence ratio of GGTTGGAAGG , test system: ATP.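 Also: ATP exposure 15 min at 22 °C before imaging.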
Reply | 0.976

---

Parameter: switch fluorescence ratio. Scope: all listed entries.
- Test system: ATP;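 also: ATP exposure 15 min at 22 °C before imaging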
- protocol_notes: switch fluorescence ratio, 500 uM ATP over buffer (Cy3 cluster intensity, sum of 5 cycles each) (fold (ratio)); higher = stronger signal-on switching upon ATP binding; sequences stand for … in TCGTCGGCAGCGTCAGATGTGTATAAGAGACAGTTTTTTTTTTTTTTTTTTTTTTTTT…TC
- particulars: aptamer strand: ATP DNA aptamer (quencher-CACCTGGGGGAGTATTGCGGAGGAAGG + anchor), 100 nM annealed; ATP concentration: 500 uM
Give only the figure.

1. TAATTTTGAG: 0.996

Ask | # lookup: switch fluorescence ratio of TCGGTTACAT
Reply | 0.983

Ask | # lookup: switch fluorescence ratio of TGGTGGTGGT
Reply | 1.01

Ask | # lookup: switch fluorescence ratio of TAAATGGGGA
Reply | 0.995
